# Subject Of Test: METTL3 (Homo sapiens (Human))
# Assay Info: TR-FRET biochemical assay (time resolved-Förster resonance energy transfer)
Overview of recorded LE (ligand efficiency) for various compounds

Prompt: Report LE (ligand efficiency) for CC(C)Nc1cc(N2CCC3(CC2)CN(c2ccc(CN4CCC(C)(C)CC4)cc2)CC(=O)N3)ncn1
Completion: 0.24 kcal.mol^-1.heavy atom count^-1

Prompt: Query LE (ligand efficiency) for CN(C)c1cc(N2CCC3(CC2)CN(c2ccc(CN4CCC(C)(C)CC4)cc2)CC(=O)N3)ncn1
Completion: 0.23 kcal.mol^-1.heavy atom count^-1

Prompt: Consider the compound CC1(C)CCN(Cc2ccc(C(=O)NC3CCN(c4cc(NCc5ccccc5)ncn4)CC3)cn2)CC1 . State its measured LE (ligand efficiency).
Completion: 0.20 kcal.mol^-1.heavy atom count^-1

====

# Assay Info: in vitro
# Measurement Context: rat, microsomes
Measured Metric: half-life

Prompt: Report half-life for CC1(C)CCN(Cc2ccc(N3CC(=O)NC4(CCN(c5nc(Cl)nc6[nH]ccc56)CC4)C3)cc2)CC1 [Compound 19]
Completion: 32 min

====

# Subject Of Test: METTL3 (Homo sapiens (Human), UniProt Q86U44)
# Sequence (Q86U44 whole entry, looked up): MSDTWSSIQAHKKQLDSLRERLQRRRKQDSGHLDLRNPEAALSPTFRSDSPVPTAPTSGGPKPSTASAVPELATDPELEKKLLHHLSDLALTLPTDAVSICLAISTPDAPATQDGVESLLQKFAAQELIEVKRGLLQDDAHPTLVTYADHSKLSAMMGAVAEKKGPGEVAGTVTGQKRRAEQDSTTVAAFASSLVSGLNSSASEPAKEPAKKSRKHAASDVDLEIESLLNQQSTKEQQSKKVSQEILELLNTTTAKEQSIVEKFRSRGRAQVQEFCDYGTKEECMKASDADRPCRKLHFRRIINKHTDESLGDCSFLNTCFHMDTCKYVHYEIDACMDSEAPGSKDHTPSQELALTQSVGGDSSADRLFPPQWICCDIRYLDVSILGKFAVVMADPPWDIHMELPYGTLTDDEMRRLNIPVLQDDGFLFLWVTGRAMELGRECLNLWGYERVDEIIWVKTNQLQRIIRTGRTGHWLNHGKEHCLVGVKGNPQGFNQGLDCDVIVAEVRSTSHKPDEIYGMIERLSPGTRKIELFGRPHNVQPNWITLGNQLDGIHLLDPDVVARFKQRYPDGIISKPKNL
# Sequence (Q9HCE5 whole entry partner, looked up): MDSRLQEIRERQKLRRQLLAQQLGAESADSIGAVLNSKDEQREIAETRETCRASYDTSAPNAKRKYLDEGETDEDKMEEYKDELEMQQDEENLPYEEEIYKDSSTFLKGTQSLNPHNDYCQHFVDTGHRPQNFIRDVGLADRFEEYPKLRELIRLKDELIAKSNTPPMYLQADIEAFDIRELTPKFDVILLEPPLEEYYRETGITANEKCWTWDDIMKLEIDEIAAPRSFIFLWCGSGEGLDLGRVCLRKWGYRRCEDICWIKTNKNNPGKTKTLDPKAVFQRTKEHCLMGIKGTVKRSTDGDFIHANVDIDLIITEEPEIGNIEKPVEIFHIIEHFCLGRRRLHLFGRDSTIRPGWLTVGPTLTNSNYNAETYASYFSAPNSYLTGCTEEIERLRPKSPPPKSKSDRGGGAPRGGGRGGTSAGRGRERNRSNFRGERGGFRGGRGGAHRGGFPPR
# Assay Info: TR-FRET biochemical assay (time resolved-Förster resonance energy transfer)
# Measurement Context: IC50 data for N6-adenosine-methyltransferase
Measured Metric: IC50 (nM)
Respond numerically; units are nM and should not be typed.

The examples below pair each entry with its known result.
Smiles Data	IC50 [nM]
CC1(C)CCN(Cc2ccc(N3CC(=O)NC4(CCN(c5cc(NCc6ccccc6)ncn5)CC4)C3)cc2)CC1	26
CC1(C)CCN(Cc2ccc(N3CC(=O)NC4(CCN(c5nc(Cl)nc6[nH]ccc56)CC4)C3)cc2)CC1	24

// below: IC50 requested for another compound
Prompt: # return recorded IC50 for entry CNc1cc(N2CCC3(CC2)CN(c2ccc(CN4CCC(C)(C)CC4)c(F)c2)CC(=O)N3)ncn1
Completion: 32

====

# Subject Of Test: UniProt Q86U44
# Assay Info: TR-FRET biochemical assay (time resolved-Förster resonance energy transfer)
# Measurement Context: IC50 data for N6-adenosine-methyltransferase
In plain terms, low IC50, meaning strictly below 300 nM, gives Met, and everything else gives Not met.

Prompt: Report whether reported IC50 is lower than 300 nM (strictly) for CNc1cc(N2CC3(CN(c4ccc(CN5CCC(C)(C)CC5)cc4)CC(=O)N3)C2)ncn1 [Compound 11]
Completion: Not met

Prompt: is_below(IC50, 300 nM) for CC1(C)CCN(Cc2ccc(N3CCOC4(CCN(c5cc(NCc6ccccc6)ncn5)CC4)C3)cn2)CC1 [Compound 7] ?
Completion: Met

Prompt: Identify whether the compound CC(C)Nc1cc(N2CCC3(CC2)CN(c2ccc(CN4CCC(C)(C)CC4)cc2)CC(=O)N3)ncn1 [Compound 15] records IC50 below 300 nM.
Completion: Not met

Prompt: # TODO verify IC50 < 300 nM strictly for this compound: CNc1cc(N2CCC3(CC2)CN(c2ccc(CN4CCC(C)(C)CC4)cc2F)CC(=O)N3)ncn1 [Compound 20]
Completion: Met

Prompt: Determine if CC1(C)CCN(Cc2ccc(N3CC(=O)NC4(CCN(c5ncnc6[nH]ccc56)CC4)C3)cc2)CC1 [Compound 17] shows IC50 strictly lower than 300 nM.
Completion: Met

Prompt: Is it true that IC50 reported for CC1(C)CCN(Cc2ccc(N3CC(=O)NC4(CCN(c5cc(NC6CC6)ncn5)CC4)C3)cc2)CC1 [Compound 16] is less than 300 nM?
Completion: Met

Prompt: Hello, is IC50 of the following compound strictly smaller than 300 nM? CC1(C)CCN(Cc2ccc(N3CC(=O)NC4(CCN(c5cc(NCc6ccccc6)ncn5)CC4)C3)cn2)CC1 [Compound 8]
Completion: Met

All figures here come from patent US20240139189A1.
